- assayed.system: T1, cynomolgus monkey transferrin receptor 1 (cynomolgus monkey (Macaca fascicularis), UniProt Q5RDH6 89-760 (Pongo abelii entry), limits assumed)
- T1 construct: also called cyTfR1; Cyno TfR1
- T1 chain: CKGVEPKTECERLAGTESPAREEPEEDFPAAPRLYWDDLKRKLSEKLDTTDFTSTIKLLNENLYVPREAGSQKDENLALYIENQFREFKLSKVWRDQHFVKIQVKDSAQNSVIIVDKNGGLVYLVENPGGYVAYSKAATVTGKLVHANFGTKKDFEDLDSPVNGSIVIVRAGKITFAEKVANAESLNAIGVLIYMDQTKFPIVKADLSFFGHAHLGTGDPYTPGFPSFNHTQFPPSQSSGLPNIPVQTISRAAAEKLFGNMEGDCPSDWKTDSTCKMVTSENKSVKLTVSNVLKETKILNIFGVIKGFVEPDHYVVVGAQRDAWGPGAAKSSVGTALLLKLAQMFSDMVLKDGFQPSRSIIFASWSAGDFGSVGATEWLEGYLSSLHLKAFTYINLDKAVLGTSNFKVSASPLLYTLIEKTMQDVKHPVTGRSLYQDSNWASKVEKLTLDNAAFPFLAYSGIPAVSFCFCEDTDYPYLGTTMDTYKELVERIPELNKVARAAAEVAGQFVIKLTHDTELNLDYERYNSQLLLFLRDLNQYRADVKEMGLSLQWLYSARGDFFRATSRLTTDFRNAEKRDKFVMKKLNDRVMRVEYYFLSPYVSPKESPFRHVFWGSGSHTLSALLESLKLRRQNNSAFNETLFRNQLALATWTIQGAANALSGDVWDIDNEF
- experiment: average KD, antibody alone; method not given
measured.property: Kd (nM)
Please give a number only; it is taken to be in nM.

Look over these answered cases.
Give recorded Kd. 5-H12 (antibody, V domains shown, Tested as a mouse monoclonal IgG) VH: QIQLQQSGPELVRPGASVKISCKASGYSFTDYCINWVNQRPGQGLEWIGWIYPGSGNTRYSERFKGKATLTVDTSSNTAYMQLSSLTSEDSAVYFCAREDYYPYHGMDYWGQGTSVTVSS VL: DIVLTQSPTSLAVSLGQRATISCRASESVDGYDNSFMHWYQQKPGQPPKLLIFRASNLESGIPARFSGSGSRTDFTLTINPVEAADVATYYCQQSSEDPWTFGGGTKLEIK
12

Give recorded Kd. 4-J22 (antibody, V domains shown, Tested as a mouse monoclonal IgG) VH: EVQLQQSGAELVRSGASVKLSCTASGFNIKDYYIHWVKQRPEQGLEWIGWIDPENADTEYAPKFQGKATMTPDTSSNTAYLQLSSLTSEDTAVYYCYAWDYSMDYWGQGTSVTVSS VL: DVVMTQTPLSLSVSLGDQASISCRSSQSLVHSNGNTYLHWYLQKPGQSPKLLIYKVSNRFSGVPDRFSGSGSGTDFILKISRVEAEDLGVYFCSQNTHVPYTFGGGTRLEIK
1.37

Give recorded Kd. 9-K23 (antibody, V domains shown, Tested as a mouse monoclonal IgG) VH: QVTLKESGPGMLQPSQTLSLTCSFSGFSLNTYDVGVGWIRQPSGKGLEWLANIWWNDDKYYNSALKSRLTISKDTSNNQVFLKISSVDTADTATYYCTLYSYDGGFAYWGQGTLVTVSA VL: QIVLTQSPAIMSASLGERVTMTCTASSSVSSSYLHWYQQKPGSSPKLWIYSTSNLASGVPARFSGSGSGTSYSLTISSMEAEDAATYYCHQYHRSPYTFGGGTKLEIK
0.662

Give recorded Kd. 3-M12 (antibody, V domains shown, Tested as a mouse monoclonal IgG) VH: DVQLQESGPGLVKPSQSLSLTCSVTGYSITSGYYWNWIRQFPGNKLEWMGYITFDGANNYNPSLKNRISITRDTSKNQFFLKLTSVTTEDTATYYCTRSSYDYDVLDYWGQGTTLTVSS VL: DIQMTQTTSSLSASLGDRVTISCRASQDISNFLNWYQQRPDGTVKLLIYYTSRLHSGVPSRFSGSGSGTDFSLTVSNLEQEDIATYFCQQGHTLPYTFGGGTKLEIK
5.18

Proceed to the following item.
Give recorded Kd. 10-H2 (antibody, V domains shown, Tested as a mouse monoclonal IgG; also called 10-H02) VH: EVQLVESGGDLVKPGGSLKLSCAASGFTFSDYGMHWVRQGPEKGLEWVAYINSGSSTIYYADTVKGRFTISRDNAKNTLFLQMTSLRSEDTAMYYCARPGDYDNYAMDYWGQGTSVTVSS VL: DIVMTQSHKFLSTSVGDRVSITCKASQDVSVAVAWYQQKPGQSPKLLIYWAYTRHTGVPDRFTGSGSGTEYTLTISSVQAEDLALYYCQQHYNTPPWTFGGGTKLEIK
12.4
